Consider the following compounds; for each one, report its pIC50.
# MEASURED TARGET: MOZ-KAT6A (Homo sapiens, UniProt Q92794, A567V)
# Sequence (Q92794 with tags, fused parts or gaps A567V): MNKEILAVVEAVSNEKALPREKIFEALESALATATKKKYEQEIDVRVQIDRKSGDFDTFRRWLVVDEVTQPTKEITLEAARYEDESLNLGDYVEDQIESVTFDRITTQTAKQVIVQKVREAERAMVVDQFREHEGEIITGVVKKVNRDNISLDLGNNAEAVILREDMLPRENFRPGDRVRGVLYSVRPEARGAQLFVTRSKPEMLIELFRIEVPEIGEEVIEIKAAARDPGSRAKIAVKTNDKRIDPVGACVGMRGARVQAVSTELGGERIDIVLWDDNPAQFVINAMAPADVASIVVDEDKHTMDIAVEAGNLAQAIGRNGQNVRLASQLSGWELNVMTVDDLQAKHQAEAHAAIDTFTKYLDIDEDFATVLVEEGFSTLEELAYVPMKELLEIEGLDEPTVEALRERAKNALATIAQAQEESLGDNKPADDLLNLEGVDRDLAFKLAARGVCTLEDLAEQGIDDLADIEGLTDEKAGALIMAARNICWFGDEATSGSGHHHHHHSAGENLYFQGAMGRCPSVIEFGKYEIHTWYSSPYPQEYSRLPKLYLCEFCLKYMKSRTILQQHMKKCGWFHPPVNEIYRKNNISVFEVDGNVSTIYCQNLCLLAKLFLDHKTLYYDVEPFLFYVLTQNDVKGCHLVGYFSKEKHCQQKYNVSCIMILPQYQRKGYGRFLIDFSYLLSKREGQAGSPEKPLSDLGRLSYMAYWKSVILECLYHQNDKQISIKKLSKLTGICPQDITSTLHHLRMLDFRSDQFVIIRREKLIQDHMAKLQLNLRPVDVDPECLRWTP
# ASSAY NOTES: Acetyltransferase biochemical assay (AlphaScreen), KAT6A
A value of pIC50 is the negative decimal logarithm of a concentration given in moles per litre.

Record CCc1ccc(OC)c(S(=O)(=O)Nc2noc3c(Br)cccc23)c1 / MOZ-KAT6A (Homo sapiens, UniProt Q92794, A567V), pIC50 recorded as 5.07

The observed pIC50 for O=S(=O)(Nc1noc2cccc(Cl)c12)c1ccc(Br)cc1OC(F)(F)F when tested with MOZ-KAT6A (Homo sapiens, UniProt Q92794, A567V) stands at 4.51

Field pIC50 (system: MOZ-KAT6A (Homo sapiens, UniProt Q92794, A567V)) for entry CCc1ccc(OC)c(S(=O)(=O)Nc2noc3ccc(Cn4cccn4)cc23)c1 = 5.44

Noted pIC50 for COc1ccc(S(=O)(=O)Nc2noc3cccc(OC)c23)c(OC)c1 , tested on MOZ-KAT6A (Homo sapiens, UniProt Q92794, A567V): 6.16

The observed pIC50 for CCc1ccc(OC)c(S(=O)(=O)Nc2noc3ccc(Br)cc23)c1 when tested with MOZ-KAT6A (Homo sapiens, UniProt Q92794, A567V) stands at 6.25

# lookup: O=S(=O)(Nc1noc2cccc(Cl)c12)c1ccc(F)c(F)c1F on MOZ-KAT6A (Homo sapiens, UniProt Q92794, A567V), pIC50 = 4.07

Bench note, MOZ-KAT6A (Homo sapiens, UniProt Q92794, A567V): Cn1nc2cccc(S(=O)(=O)Nc3noc4cccc(Cl)c34)c2n1 , pIC50 reads 4.52

Reading of pIC50 for COc1cccc(OC)c1S(=O)(=O)Nc1noc2cc(-c3cccnc3)cc(OC)c12 with MOZ-KAT6A (Homo sapiens, UniProt Q92794, A567V): 6.17

Param item: O=S(=O)(Nc1noc2ccccc12)c1ccc2c(c1)CCC2 ; param system: MOZ-KAT6A (Homo sapiens, UniProt Q92794, A567V); output pIC50: 4.57

----------
# MEASURED TARGET: MOZ-KAT6A (Homo sapiens, UniProt Q92794, A567V)
# ASSAY NOTES: Acetyltransferase biochemical assay (AlphaScreen), KAT6A
pIC50: −log10 of the molar value.
Think of 5 as a floor: if pIC50 stands on it or above, it is 1.0; beneath it, 0.0.

Ask: In plain terms: is recorded pIC50 at least 5 for COc1cccc(OC)c1S(=O)(=O)Nc1noc2cc(OC(F)F)cc(OC)c12 [Example 242] ?
Reply: 1.0

Ask: In plain terms: is recorded pIC50 at least 5 for COc1ccc(-c2cc(OC)c3c(NS(=O)(=O)c4c(OC)cccc4OC)noc3c2)cn1 [Example 247] ?
Reply: 1.0

Ask: # bool: pIC50 of Cc1ncc(-c2ccc(C)c(S(=O)(=O)Nc3noc4cccc(Cl)c34)c2)o1 [Example 18] >= 5
Reply: 0.0

Ask: Dear colleague, could you confirm whether CCc1ccc(OC)c(S(=O)(=O)Nc2noc3cc(OCC4CC4)ccc23)c1 [Example 134] has pIC50 at or above 5?
Reply: 1.0

Ask: Check the entry CCc1ccc(OC)c(S(=O)(=O)Nc2noc3c(CO)cccc23)c1 [Example 186] : does pIC50 equal or exceed 5?
Reply: 0.0

Ask: Can COc1cccc(OC)c1S(=O)(=O)Nc1noc2cc(COCC(F)(F)F)cc(OC)c12 [Example 240] be said to have pIC50 at or above 5?
Reply: 1.0

Ask: Test whether the molecule O=S(=O)(Nc1noc2cccc(Cl)c12)c1cccc2c1OCCO2 [Example 39] records pIC50 of 5 or higher.
Reply: 0.0

----------
pIC50 tested on UniProt:Q92993: recorded values
Sequence (Q92993 with tags, fused parts or gaps isoform Q92993-2): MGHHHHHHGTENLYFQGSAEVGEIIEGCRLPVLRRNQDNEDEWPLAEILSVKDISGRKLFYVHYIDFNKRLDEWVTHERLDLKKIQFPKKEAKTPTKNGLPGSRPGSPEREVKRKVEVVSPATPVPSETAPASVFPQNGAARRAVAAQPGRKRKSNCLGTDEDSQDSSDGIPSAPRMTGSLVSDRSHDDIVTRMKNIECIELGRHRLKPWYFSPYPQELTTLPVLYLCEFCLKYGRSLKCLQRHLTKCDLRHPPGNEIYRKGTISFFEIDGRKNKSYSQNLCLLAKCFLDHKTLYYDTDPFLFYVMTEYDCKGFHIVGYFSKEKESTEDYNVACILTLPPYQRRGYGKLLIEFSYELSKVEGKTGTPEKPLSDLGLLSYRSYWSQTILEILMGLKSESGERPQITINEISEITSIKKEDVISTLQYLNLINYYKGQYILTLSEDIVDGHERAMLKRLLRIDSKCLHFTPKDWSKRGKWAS
Answer as the number alone; pIC50 is minus log10 of concentration in mol/L.

Quick note, pIC50 for COCc1ccc2c(NS(=O)(=O)c3c(OC)cccc3OC)noc2c1 landed at 4.16

Summary for this molecule, CCc1ccc(OC)c(S(=O)(=O)Nc2noc3cccc(CC)c23)c1 : pIC50 is 4.83

// field: pIC50; key: CCc1ccc(OC)c(S(=O)(=O)Nc2noc3ccc(C4CC4)cc23)c1 ; value = 5.00

Entry COc1cc(CO)cc(OC)c1S(=O)(=O)Nc1noc2cccc(OC)c12 — recorded pIC50 = 4.54

Note to self: pIC50 recorded for COc1cccc2onc(NS(=O)(=O)c3cccc4ccc(C)nc34)c12 was 4.96

Sure, the documented pIC50 for COc1cc(CNC(C)=O)cc(OC)c1S(=O)(=O)Nc1noc2cccc(OC)c12 is 5.10

Entry CCc1ccc(OC)c(S(=O)(=O)Nc2noc3cc(-c4ncccn4)ccc23)c1 — recorded pIC50 = 4.29

Recorded result, COC(=O)c1ccc(Cl)cc1S(=O)(=O)Nc1noc2cccc(Cl)c12 , pIC50: 4.63

The reported value for CCc1ccc(OC)c(S(=O)(=O)Nc2noc3cc(C)ccc23)c1 in terms of pIC50 is 4.27

----------
# MEASURED TARGET: MOZ-KAT6A (Homo sapiens, UniProt Q92794, A567V)
# ASSAY NOTES: Acetyltransferase biochemical assay (AlphaScreen), KAT6A
pIC50: −log10 of the molar value.
Please note: label 1 applies when pIC50 is 5 or greater, and label 0 applies otherwise.

Ask: Hello, I need to know if O=S(=O)(Nc1noc2cccc(Cl)c12)c1ccccc1OC(F)F has measured pIC50 not below 5. Thanks!
Reply: label 0

Ask: hey, is pIC50 for this one >= 5? CCc1ccc(OC)c(S(=O)(=O)Nc2noc3cccc(C(F)(F)F)c23)c1
Reply: label 1

Ask: Textbook exercise: given the entry COc1cc(C)c(C(C)C)cc1S(=O)(=O)Nc1noc2cccc(Cl)c12 , state whether its pIC50 is greater than or equal to 5.
Reply: label 0

Ask: Given the entry COc1cccc(OC)c1S(=O)(=O)Nc1noc2c(-c3cnn(C)c3)ccc(OC)c12 , answer whether its pIC50 meets or surpasses 5.
Reply: label 0

Ask: Could you verify whether the entry CCOc1cccc(OC)c1S(=O)(=O)Nc1noc2cccc(OC)c12 shows pIC50 of no less than 5?
Reply: label 1

Ask: Quick check, pIC50 >= 5? COCc1cc(OC)c2c(NS(=O)(=O)c3c(OC)ccc(Cl)c3OC)noc2c1
Reply: label 1

Ask: # check: pIC50 of O=S(=O)(Nc1noc2cccc(Cl)c12)c1cccc2nsnc12 is greater than or equal to 5
Reply: label 0

Ask: Hello, I need to know if CCOc1cccc2onc(NS(=O)(=O)c3cc(CC)ccc3OC)c12 has measured pIC50 not below 5. Thanks!
Reply: label 1

Ask: State whether the measured pIC50 reaches 5, counting equality as reaching it, for CCc1ccc(OC)c(S(=O)(=O)Nc2noc3ccc(CO)cc23)c1
Reply: label 0

Ask: Reported pIC50 reaches at least 5 for COc1ccc(-c2ccno2)cc1S(=O)(=O)Nc1noc2ccccc12 ?
Reply: label 0

Ask: Would you say COc1cc(-c2cc(OC)c3c(NS(=O)(=O)c4c(OC)cccc4OC)noc3c2)ccn1 shows pIC50 at minimum 5?
Reply: label 1

Ask: # bool: pIC50 of COc1cccc(OC)c1S(=O)(=O)Nc1noc2cc(-c3ncco3)ccc12 >= 5
Reply: label 0

Ask: Could you tell me if the measured pIC50 of Cc1ccc(S(=O)(=O)Nc2noc3cccc(Cl)c23)cc1 reaches 5 or more?
Reply: label 0

Ask: Evaluate O=S(=O)(Nc1noc2cccc(Cl)c12)c1ccc(OCc2ccccc2)cc1 : pIC50 at minimum 5?
Reply: label 0

Ask: pIC50 >= 5 for COc1cccc(OCC(N)=O)c1S(=O)(=O)Nc1noc2cccc(OC)c12 ?
Reply: label 0

Ask: pIC50 >= 5 for CCc1ccc(OC)c(S(=O)(=O)Nc2noc3ccc(Br)c(OC)c23)c1 ?
Reply: label 1

Ask: Please check the record O=S(=O)(Nc1noc2ccccc12)c1ccc(Cl)cc1Cl and state if its pIC50 is at or above 5.
Reply: label 0

Ask: Is pIC50 at least 5? Consider COc1cncc(-c2cc(OC)c3c(NS(=O)(=O)c4c(OC)cccc4OC)noc3c2)c1
Reply: label 1

Ask: Entry COc1cccc(OC)c1S(=O)(=O)Nc1noc2cc(-c3ccccn3)c(C)cc12 : is its pIC50 no less than 5?
Reply: label 1

Ask: Decide: pIC50 of COc1cc(-c2ccccc2)cc(OC)c1S(=O)(=O)Nc1noc2cccc(OC)c12 >= 5?
Reply: label 1

Ask: Is pIC50 at least 5? Consider O=S(=O)(Nc1noc2ccccc12)c1ccc(Cl)c(Cl)c1
Reply: label 0

Ask: Quick check: does CCc1ccc(OC)c(S(=O)(=O)Nc2noc3cc(CC)ccc23)c1 have pIC50 greater than or equal to 5?
Reply: label 1

Ask: Form field: pIC50 at least 5? Entry: CCc1ccc(OC)c(S(=O)(=O)Nc2noc3ccc(CNC(C)=O)cc23)c1
Reply: label 0

Ask: State whether the measured pIC50 reaches 5, counting equality as reaching it, for CCc1ccc(OC)c(S(=O)(=O)Nc2noc3ccc(C)c(Cl)c23)c1
Reply: label 1

Ask: Is the recorded value of pIC50 equal to or greater than 5 for this compound? COc1cccc(OC)c1S(=O)(=O)Nc1noc2c(-c3ccccc3)cc(C)cc12
Reply: label 1

Ask: Threshold query (pIC50 >= 5) on CCc1ccc(OC)c(S(=O)(=O)Nc2noc3ccc(C)cc23)c1
Reply: label 1

Ask: Evaluate COc1cccc(-c2cc(OC)c3c(NS(=O)(=O)c4c(OC)cccc4OC)noc3c2)c1 : pIC50 at minimum 5?
Reply: label 1

Ask: Kindly determine if pIC50 recorded for Cc1ccc(Br)cc1S(=O)(=O)Nc1noc2cccc(Cl)c12 is above or exactly 5.
Reply: label 0

Ask: Hello, I need to know if COc1cccc(OC)c1S(=O)(=O)Nc1noc2cc(-c3cccc(C#N)c3)cc(OC)c12 has measured pIC50 not below 5. Thanks!
Reply: label 1

Ask: Is the recorded value of pIC50 equal to or greater than 5 for this compound? CCc1ccc(OC)c(S(=O)(=O)Nc2noc3c(OCC4CC4)cccc23)c1
Reply: label 1

Ask: Confirm if pIC50 reported for the compound O=S(=O)(Nc1noc2ccccc12)c1ccc2ccccc2c1 is 5 or above.
Reply: label 0

Ask: Test whether the compound COc1cc(-c2ccccc2)ccc1S(=O)(=O)Nc1noc2ccccc12 records pIC50 of 5 or higher.
Reply: label 1
